These entries and their values trace back to PubChem BioAssay AID2796.

assayed system: Aryl hydrocarbon receptor (Homo sapiens) (UniProt P35869)
Sequence (P35869 whole entry, looked up): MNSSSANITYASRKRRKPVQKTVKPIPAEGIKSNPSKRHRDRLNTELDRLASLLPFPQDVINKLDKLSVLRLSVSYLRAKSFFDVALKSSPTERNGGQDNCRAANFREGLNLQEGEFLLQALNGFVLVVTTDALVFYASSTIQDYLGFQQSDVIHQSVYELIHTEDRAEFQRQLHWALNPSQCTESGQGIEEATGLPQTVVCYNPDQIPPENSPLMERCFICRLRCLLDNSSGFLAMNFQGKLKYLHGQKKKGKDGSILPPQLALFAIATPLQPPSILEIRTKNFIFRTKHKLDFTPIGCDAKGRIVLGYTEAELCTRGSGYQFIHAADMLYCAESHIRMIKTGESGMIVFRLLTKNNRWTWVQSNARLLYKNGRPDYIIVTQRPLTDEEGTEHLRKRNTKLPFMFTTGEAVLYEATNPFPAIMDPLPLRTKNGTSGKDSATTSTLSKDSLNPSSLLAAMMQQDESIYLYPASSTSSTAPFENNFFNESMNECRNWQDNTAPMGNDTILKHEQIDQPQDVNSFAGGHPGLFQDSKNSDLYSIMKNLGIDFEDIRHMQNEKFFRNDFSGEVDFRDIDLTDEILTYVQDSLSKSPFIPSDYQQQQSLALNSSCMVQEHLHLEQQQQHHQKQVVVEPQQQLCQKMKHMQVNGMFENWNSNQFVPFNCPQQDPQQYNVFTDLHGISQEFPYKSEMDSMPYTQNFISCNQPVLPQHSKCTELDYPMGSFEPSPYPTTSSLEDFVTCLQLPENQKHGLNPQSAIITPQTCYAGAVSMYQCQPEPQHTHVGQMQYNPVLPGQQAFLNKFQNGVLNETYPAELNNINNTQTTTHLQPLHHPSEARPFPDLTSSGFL
test description: AHR activators, primary screen, cell-based, luminescence, luciferase reporter, human (AID 2796);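 also: 0% = vehicle wells and 100% = reference agonist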
experimental parameters: AHR-responsive luciferase reporter cells, at 5 µM, stronger effect = higher value
The campaign covered roughly 320,000 compounds. About 8,000 (2.5%) were called active. What follows is part of a selection rich in actives, with near analogues and random picks from the rest.
measure: activation (%)
Unit % implied. Number only.

Which activation value belongs to `C=CCC1(C(=O)N(C)Cc2ccccc2)CCN(C(=O)OC(C)(C)C)CC1` ?
5

Which activation value belongs to `COC(=O)c1[nH]c2ccccc2c1NC(=O)CN1CCCc2ccccc21` ?
74.4

Which activation value belongs to CCC1CCc2c(sc(NC(C)=O)c2C#N)C1 (centres undefined) ?
1.29

Which activation value belongs to `CCCCN(CC(=O)NC(C)(C)C)C(=O)C(=O)Nc1ccc2c(c1)OCCO2` ?
7.49

Which activation value belongs to `CCc1noc(C)c1C(=O)Nc1nc2ccc(OC)cc2s1` ?
1.93

Which activation value belongs to `Cc1cc2c(cc1S(=O)(=O)NCc1ccc(Cl)cc1)OCC(=O)N2` ?
1

Which activation value belongs to `O=S(=O)(Nc1cc(S(=O)(=O)N2CCOCC2)ccc1N1CCCC1)c1cccs1` ?
1.52

Which activation value belongs to `CCN(c1ccccc1)S(=O)(=O)c1ccc(C(=O)Nc2nccs2)cc1` ?
3.71

Which activation value belongs to `C[C@H]1CN([C@@H](C)CO)C(=O)Cc2cc(NC(=O)Cc3ccccc3)ccc2O[C@H]1CN(C)S(=O)(=O)c1cccs1` ?
-0.6

Which activation value belongs to Cc1cccc(OCC(O)CN2CCN(CCN3C(=O)c4cccc5cccc(c45)C3=O)CC2)c1C (centres undefined) ?
1.57

Which activation value belongs to `CCc1noc(C)c1C(=O)Nc1nc(-c2ccccc2)cs1` ?
55.4

Which activation value belongs to `O=C(Nc1ccc2ccccc2c1)Nc1ccc2snnc2c1` ?
7.08

Which activation value belongs to `COc1cccc(-n2cc(C(=O)O)c3ccccc3c2=O)c1` ?
-1.78

Which activation value belongs to CCOC(=O)N1CCN(S(=O)(=O)N2CCCC(C(=O)NCCCN3CCC(C)CC3)C2)CC1 (centres undefined) ?
0.65

Which activation value belongs to `Cc1cc(O)c(Sc2ccccc2)c(=O)o1` ?
0.97

Which activation value belongs to `O=C(Cc1ccc([N+](=O)[O-])cc1)Nc1ccc(C(=O)N2CCOCC2)cc1` ?
0.42

Which activation value belongs to `Cc1nonc1NC(=O)c1oc2ccccc2c1C` ?
12.5

Which activation value belongs to `Cc1nc(Cl)cc(N/N=C/c2ccccc2)n1` ?
23.2

Which activation value belongs to `O=C(Nc1ccc(S(=O)(=O)Nc2ccccn2)cc1)c1ccccc1` ?
-0.84

Which activation value belongs to `O=C(OCC(=O)N1CCN(c2ccccc2)CC1)c1ccc([N+](=O)[O-])s1` ?
0.3
